- Tested on: Escherichia coli (E. coli) strain CFT073 ATCC 700928
- Assay type: cell-based
- CONDITION_SET: ATCC 700928, 22 h
*1 amine or outer side, *2 acyl side, *3 side chain or, on linkers, in order; H or OH if unused. Where a SMILES comes first, the peptide text is derived from it. [ ]: non-standard residue; d: D form. The star is where a group is joined. X2 = CCCCCC[C@@H](OC[C@@H](C)N[*:1])[C@@H](C)C(=O)[*:2]; X23 = CCCCCCCCCC[C@@H](OCCN[*:1])[C@@H](C)C(=O)[*:2]; aIle = CC[C@@H](C)[C@H](N)C(=O)O; aThr = C[C@H](O)[C@H](N)C(=O)O; NMeL = CN[C@@H](CC(C)C)C(=O)O; Chg = N[C@H](C(=O)O)C1CCCCC1; Dap = NC[C@H](N)C(=O)O; Propyl(3-NH2) = NCCC*
OBSERVABLE: MIC (µM)

Example entries begin here.
- CCC[C@H]1C(=O)N[C@@H](C2CCCCCC2)C(=O)N[C@@H](CN)C(=O)N[C@@H](COC2CC3(CC(N)C3)C2)C(=O)N[C@H](C)CO[C@H](CC2CC3(CCC3)C2)[C@@H](C)C(=O)N1C (single isomer, unassigned; stereoisomer 1) [Example 166]: 1.1
- CCCCCCCCCC[C@H]1OCCNC(=O)[C@H]([C@H](C)O)NC(=O)[C@H](CN)NC(=O)[C@H]([C@H](C)CC)NC(=O)[C@H](CC(C)C)N(C)C(=O)[C@@H]1C [Example 47] (cyclo([Dap][aThr][X23][NMeL][aIle])): 3.1
- CCCCCCCCCC[C@H]1OC(=O)CNC(=O)[C@H](CO)NC(=O)[C@H](CO)NC(=O)[C@H](CC2CCC2)NC(=O)[C@H](CC(C)C)N(C)C(=O)[C@@H]1C: 25

P: CCCCCC[C@@H]1OC(=O)CNC(=O)[C@H](CNC(=O)C2CCNCC2)NC(=O)[C@H](CN)NC(=O)[C@H](C2CCCCC2)NC(=O)[C@H](CC(C)C)N(C)C(=O)[C@@H]1C (stereo in doubt)
Q: CCC[C@H]1C(=O)N[C@@H](C2CCCCCC2)C(=O)N[C@@H](CN)C(=O)N[C@@H]([C@H](C)O)C(=O)NCC(=O)O[C@H](CCC2CC3CCC2C3)[C@@H](C)C(=O)N1C (stereo partly drawn)
R: CCCC[C@H]1OC(=O)CNC(=O)[C@H]([C@H](C)O)NC(=O)[C@H](CN)NC(=O)[C@H](C2CCCCC2)NC(=O)[C@H](CC(C)C)N(C)C(=O)[C@@H]1CCCC
S: CCCCCCCCCC[C@H]1OC(=O)CNC(=O)[C@H]([C@H](C)O)NC(=O)[C@H](CNC(=N)N)NC(=O)[C@H]([C@@H](C)CC)NC(=O)[C@H](CC(C)C)N(C)C(=O)[C@@H]1C
T: CCCCCCCCCC[C@H]1OC(=O)CNC(=O)[C@H]([C@H](C)O)NC(=O)[C@H](CN)NC(=O)[C@H]([C@H](C)CC)NC(=O)[C@H](CC2CC2)N(C)C(=O)[C@@H]1C
QUERY: Ordering: ascending MIC. Use the labels to give the ranking in the order requested.
RESULT: Q, R, T, P, S

I: CCCCCCCCCC[C@H]1OC(=O)CNC(=O)[C@H]([C@H](C)O)NC(=O)[C@H](CCN)NC(=O)[C@H]([C@@H](C)CC)NC(=O)[C@H](CC(C)C)N(C)C(=O)[C@@H]1C
II: CCCCCC[C@H]1OC[C@@H](C)NC(=O)[C@H]([C@H](C)OCCCN)NC(=O)[C@H](CN)NC(=O)[C@H](C2CCCCC2)NC(=O)[C@H](CC(C)C)N(C)C(=O)[C@@H]1C [Example 70] (cyclo([Chg][Dap][aThr](Propyl(3-NH2))[X2][NMeL]))
III: CCC[C@H]1C(=O)N[C@@H](C2CCCCCC2)C(=O)N[C@@H](CN)C(=O)N[C@@H]([C@H](C)O)C(=O)NCC(=O)O[C@H](CC2CC3CCC2C3)[C@@H](C)C(=O)N1C (stereo partly drawn)
IV: CC(C)C[C@H]1C(=O)N[C@@H](C2CCCCC2)C(=O)N[C@@H](CN)C(=O)N[C@@H]([C@H](C)O)C(=O)NCC(=O)O[C@H](CC2CC3CCC2C3)[C@@H](C)C(=O)N1C (stereo partly drawn)
V: CCCCCCCCCC[C@H]1OC(=O)CNC(=O)[C@H]([C@H](C)O)NC(=O)[C@H](CN)NC(=O)[C@H]([C@H](C)CC)NC(=O)[C@H](CCC(C)C)N(C)C(=O)[C@@H]1C
QUERY: Rank order required: MIC, descending. Answer format: list of labels, ordered as asked.
RESULT: I, II, V, IV, III

1: CC(C)C[C@H]1C(=O)N[C@@H](C2CCCCC2)C(=O)N[C@@H](CN)C(=O)N[C@@H]([C@H](C)O)C(=O)NCC(=O)O[C@H](CCC2CC3CCC2C3)[C@@H](C)C(=O)N1C (stereo partly drawn)
2: CCCCCCCCCC[C@H]1OC(=O)[C@H](C)NC(=O)[C@H]([C@H](C)O)NC(=O)[C@H](CO)NC(=O)[C@H]([C@@H](C)CC)NC(=O)[C@H](CC(C)C)N(C)C(=O)[C@@H]1C
3: CCCCCC(C)[C@H]1OC(=O)CNC(=O)[C@H]([C@H](C)O)NC(=O)[C@H](CN)NC(=O)[C@H](C2CCCCC2)NC(=O)[C@H](CC(C)C)N(C)C(=O)[C@@H]1C (stereo partly drawn)
QUERY: Put the items in sequence by MIC, from largest down. Provide your answer as the labels ordered per the instruction.
RESULT: 2, 3, 1
(2: 13 µM, 3: 3.1 µM, 1: 0.73 µM)
